Source of measurements: patent US20250382355A1

binning response for assorted binders
target: Biotinylated CoV2 Spike ECD PreS-AVI protein (SARS-CoV-2, UniProt P0DTC2 14-1208)
assayRemarks: Octet binning; competitor 15H1
reportedEndpoint: binning response

[
  {
    "binder": "1A11 VHH-Fc (Fc fusion) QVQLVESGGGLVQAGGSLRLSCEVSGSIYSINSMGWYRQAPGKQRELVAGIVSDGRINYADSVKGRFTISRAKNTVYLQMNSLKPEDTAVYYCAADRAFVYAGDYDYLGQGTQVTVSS",
    "result": 0.14
  },
  {
    "binder": "3D4 VHH-Fc (Fc fusion) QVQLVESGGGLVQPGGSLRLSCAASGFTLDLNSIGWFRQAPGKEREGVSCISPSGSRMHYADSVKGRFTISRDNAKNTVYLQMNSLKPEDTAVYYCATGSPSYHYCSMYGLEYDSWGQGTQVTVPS",
    "result": 0.1
  }
]
